Reference source: paper PMC11436758

# Tested on: S. aureus (VISA)
# Protocol summary: MIC, clinical and laboratory strains
# Assay type: cell-based
# Settings: S. aureus (VISA) 2018
// reported MIC for each item listed

Smiles notation	Assayed target	Unit of measurement	Result modifier	MIC
CC[C@H]1OC(=O)[C@H](C)[C@@H](O[C@H]2C[C@@](C)(OC)[C@@H](O)[C@H](C)O2)[C@H](C)[C@@H](O[C@@H]2O[C@H](C)C[C@H](N(C)C)[C@H]2O)[C@](C)(O)C[C@@H](C)C(=O)[C@H](C)[C@@H](O)[C@]1(C)O	S. aureus (VISA)	µg/mL	>	16
CN[C@H](CC(C)C)C(=O)N[C@H]1C(=O)N[C@@H](CC(N)=O)C(=O)N[C@H]2C(=O)N[C@H]3C(=O)N[C@H](C(=O)N[C@H](C(=O)O)c4cc(O)cc(O)c4-c4cc3ccc4O)[C@H](O)c3ccc(c(Cl)c3)Oc3cc2cc(c3O[C@@H]2O[C@H](CO)[C@@H](O)[C@H](O)[C@H]2O[C@H]2C[C@](C)(N)[C@H](O)[C@H](C)O2)Oc2ccc(cc2Cl)[C@H]1O	S. aureus (VISA)	µg/mL	=	4
CC(C)c1cc(Cl)ccc1-c1cc(-c2nnn[nH]2)c(-c2ccc(Cl)cc2C(C)C)s1	S. aureus (VISA)	µg/mL	=	2
C/C(=C\C(=O)OCCCCCCCCC(=O)O)C[C@@H]1OC[C@H](C[C@@H]2O[C@H]2[C@@H](C)[C@H](C)O)[C@@H](O)[C@H]1O	S. aureus (VISA)	µg/mL	=	0.12

###

# Tested on: S. aureus (MSSA)
# Protocol summary: MIC, clinical and laboratory strains
# Format: cell-based
# Settings: S. aureus (MSSA) 6168
// reported MIC for each item listed

Smiles notation	MIC [µg/mL]
CC(C)c1cc(Cl)ccc1-c1cc(-c2nnn[nH]2)c(-c2ccc(Cl)cc2C(C)C)s1	1
C/C(=C\C(=O)OCCCCCCCCC(=O)O)C[C@@H]1OC[C@H](C[C@@H]2O[C@H]2[C@@H](C)[C@H](C)O)[C@@H](O)[C@H]1O	2
CN[C@H](CC(C)C)C(=O)N[C@H]1C(=O)N[C@@H](CC(N)=O)C(=O)N[C@H]2C(=O)N[C@H]3C(=O)N[C@H](C(=O)N[C@H](C(=O)O)c4cc(O)cc(O)c4-c4cc3ccc4O)[C@H](O)c3ccc(c(Cl)c3)Oc3cc2cc(c3O[C@@H]2O[C@H](CO)[C@@H](O)[C@H](O)[C@H]2O[C@H]2C[C@](C)(N)[C@H](O)[C@H](C)O2)Oc2ccc(cc2Cl)[C@H]1O	0.5
CC[C@H]1OC(=O)[C@H](C)[C@@H](O[C@H]2C[C@@](C)(OC)[C@@H](O)[C@H](C)O2)[C@H](C)[C@@H](O[C@@H]2O[C@H](C)C[C@H](N(C)C)[C@H]2O)[C@](C)(O)C[C@@H](C)C(=O)[C@H](C)[C@@H](O)[C@]1(C)O	0.25

###

// reported MIC for each item listed
# Test system: S. aureus (MSSA)
# Protocol summary: MIC, clinical and laboratory strains
# Format: cell-based
# Settings: S. aureus (MSSA) 6167
Assay readout: MIC (µg/mL)

Smiles notation	Assay readout	Result modifier	Experimental value
CC(C)c1cc(Cl)ccc1-c1cc(-c2nnn[nH]2)c(-c2ccc(Cl)cc2C(C)C)s1	MIC	=	2
C/C(=C\C(=O)OCCCCCCCCC(=O)O)C[C@@H]1OC[C@H](C[C@@H]2O[C@H]2[C@@H](C)[C@H](C)O)[C@@H](O)[C@H]1O	MIC	=	1
CN[C@H](CC(C)C)C(=O)N[C@H]1C(=O)N[C@@H](CC(N)=O)C(=O)N[C@H]2C(=O)N[C@H]3C(=O)N[C@H](C(=O)N[C@H](C(=O)O)c4cc(O)cc(O)c4-c4cc3ccc4O)[C@H](O)c3ccc(c(Cl)c3)Oc3cc2cc(c3O[C@@H]2O[C@H](CO)[C@@H](O)[C@H](O)[C@H]2O[C@H]2C[C@](C)(N)[C@H](O)[C@H](C)O2)Oc2ccc(cc2Cl)[C@H]1O	MIC	=	0.5
CC[C@H]1OC(=O)[C@H](C)[C@@H](O[C@H]2C[C@@](C)(OC)[C@@H](O)[C@H](C)O2)[C@H](C)[C@@H](O[C@@H]2O[C@H](C)C[C@H](N(C)C)[C@H]2O)[C@](C)(O)C[C@@H](C)C(=O)[C@H](C)[C@@H](O)[C@]1(C)O	MIC	>	16

###

# Assayed target: AcpS (Escherichia coli, UniProt P24224)
# Sequence (P24224 2-126): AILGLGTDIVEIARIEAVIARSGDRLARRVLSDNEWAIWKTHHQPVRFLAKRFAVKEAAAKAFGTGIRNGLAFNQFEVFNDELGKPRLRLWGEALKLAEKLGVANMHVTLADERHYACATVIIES
pIC50: −log10 of the molar value.
Assay readout: pIC50

>>> print(df.to_string())
                                    compound  assay_readout  experimental_value
 0  c1ccc(-c2cc(-c3nnn[nH]3)sc2-c2ccccc2-c2ccsc2)c(-c2ccsc2)c1 [DNM0559]          pIC50                5.05
 1  Cc1cc(Cl)ccc1-c1sc(-c2nnn[nH]2)c(C)c1-c1ccc(Cl)cc1C [DNM0614]          pIC50                4.89
 2  CC(C)c1cc(Cl)ccc1-c1cc(-c2nnn[nH]2)sc1-c1ccc(Cl)cc1C(C)C [DNM0548]          pIC50                5.10
 3  CCCCc1cccc(-c2sc(-c3nnn[nH]3)c(C)c2-c2cccc(CCCC)c2)c1 [DNM0627]          pIC50                5.00
 4  Cc1ccc(-c2cc(-c3nnn[nH]3)sc2[C@@H]2CCCc3ccccc32)c2ccccc12 [DNM0636]          pIC50                4.89
 5  Cc1ccc(-c2sc(-c3ccc(Cl)cc3)cc2-c2nnn[nH]2)c2ccccc12 [DNM0473]          pIC50                5.00
 6  Clc1ccc(-c2cc(-c3nnn[nH]3)cc(-c3ccccc3-c3ccccc3)c2)cc1 [DNM0479]          pIC50                5.05
 7  Cc1ccc(-c2cc(-c3nnn[nH]3)c(-c3ccccc3-c3ccccc3)s2)c2ccccc12 [DNM0478]          pIC50                5.10
 8  Clc1ccc(-c2cc(-c3nnn[nH]3)sc2-c2ccc(Cl)cc2)cc1 [DNM0487]          pIC50                6.00
 9  Cc1cc(Cl)ccc1-c1cc(-c2nnn[nH]2)sc1-c1ccc(Cl)cc1C [DNM0488]          pIC50                5.05
10  c1ccc(-c2ccccc2-c2cc(-c3nnn[nH]3)cc(-c3ccccc3-c3ccccc3)c2)cc1 [DNM0464]          pIC50                5.05
11  Clc1ccc(Cc2sc(-c3nnn[nH]3)cc2-c2cccc(CC3CCCC3)c2)cc1 [DNM0610]          pIC50                5.05
12  Cc1ccc(-c2cc(-c3ccc(Cl)cc3)cc(-c3nnn[nH]3)c2)c2ccccc12 [DNM0480]          pIC50                5.10
13  CC(C)(C)c1ccc(-c2cc(-c3nnn[nH]3)sc2-c2ccc(C(C)(C)C)cc2)cc1 [DNM0546]          pIC50                4.80
14  CC(C)c1cc(Cl)ccc1-c1cc(C(=O)O)sc1-c1ccc(Cl)cc1C(C)C [DNM0566]          pIC50                4.89
15  c1ccc(-c2ccccc2-c2cc(-c3nnn[nH]3)sc2-c2ccccc2-c2ccccc2)cc1 [DNM0489]          pIC50                5.00
16  c1ccc2c(c1)oc1c(-c3cc(-c4nnn[nH]4)sc3-c3cccc4c3oc3ccccc34)cccc12 [DNM0542]          pIC50                4.92
17  Clc1ccc(-c2sc(-c3ccccc3-c3ccccc3)cc2-c2nnn[nH]2)cc1 [DNM0466]          pIC50                5.05

###

# Protocol summary: Dermal pharmacokinetics, serum concentration after topical application
# Assay type: in vivo, Sprague Dawley rats
# Settings: Sprague Dawley, rat, serum, topical, 2 %, 2% applied topically, 48 h
Assay readout: concentration at 48 h (ng/mL)

                            smiles_notation          assay_readout  unit_of_measurement  experimental_value
0  CC(C)c1cc(Cl)ccc1-c1cc(-c2nnn[nH]2)c(-c2ccc(Cl)cc2C(C)C)s1  concentration at 48 h                ng/mL                  30
